# procedure.text: Drug metabolism in macaque hepatic microsomes assessed as compound lability by LC-MS/MS method
# Assay type: ADME, Macaca mulatta, Microsome
# study.conditions: rhesus monkey, liver microsomes; read-out: Drug metabolism
recorded.metric: metabolised

INSERT INTO assay_data (substance_smiles, value_measured) VALUES
  ('Cc1nnc(C)n1-c1ccc(O[C@H]2c3cc(Cl)cc(Cl)c3C[C@@H]2N2CC[C@@H](O)C2)c(F)c1.Cl', '> 60%');

* * *

# target.under.test: Cytochrome P450 2D6 (Homo sapiens, UniProt P10635)
# Sequence (P10635 whole entry): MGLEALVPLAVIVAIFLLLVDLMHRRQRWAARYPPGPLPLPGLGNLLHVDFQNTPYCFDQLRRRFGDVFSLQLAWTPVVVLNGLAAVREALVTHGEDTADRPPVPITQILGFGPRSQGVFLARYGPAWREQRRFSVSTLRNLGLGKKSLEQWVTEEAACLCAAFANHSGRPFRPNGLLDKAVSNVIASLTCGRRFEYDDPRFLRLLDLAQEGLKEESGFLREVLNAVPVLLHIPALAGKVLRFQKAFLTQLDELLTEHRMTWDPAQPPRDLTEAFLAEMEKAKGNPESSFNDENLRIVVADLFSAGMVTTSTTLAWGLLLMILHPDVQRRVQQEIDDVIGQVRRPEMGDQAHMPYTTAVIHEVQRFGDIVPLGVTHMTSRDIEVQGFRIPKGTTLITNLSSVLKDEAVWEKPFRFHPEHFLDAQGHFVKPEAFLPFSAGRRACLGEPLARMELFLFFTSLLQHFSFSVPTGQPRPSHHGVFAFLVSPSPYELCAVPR
pIC50: −log10 of the molar value.
recorded.metric: pIC50

INSERT INTO measurements (substance_smiles, recorded_metric, value_measured) VALUES
  ('CS(=O)(=O)c1ccc(O[C@H]2c3cc(Cl)cc(Cl)c3C[C@@H]2N2CCCNCC2)cc1', 'pIC50', '> 6.52'),
  ('CN1CCCN([C@H]2Cc3c(Cl)cc(Cl)cc3[C@@H]2Oc2ccc(S(C)(=O)=O)cc2)CC1', 'pIC50', '> 6.52'),
  ('Cc1nnc(C)n1-c1ccc(O[C@H]2c3cc(Cl)cc(Cl)c3C[C@@H]2N2CCCNCC2)cc1', 'pIC50', '< 5.00'),
  ('CS(=O)(=O)c1ccc(O[C@H]2c3cc(Cl)cc(Cl)c3C[C@@H]2N2CCNCC2)cc1', 'pIC50', '> 6.52'),
  ('CS(=O)(=O)c1ccc(O[C@H]2c3cc(Cl)cc(Cl)c3C[C@@H]2N2CC[C@@H](O)C2)cc1', 'pIC50', 5.62),
  ('Cc1nnc(C)n1-c1ccc(O[C@H]2c3ccccc3C[C@@H]2N2CCCC2)c(Cl)c1', 'pIC50', 6.14),
  ('N[C@@H]1CCCN([C@H]2Cc3c(Cl)cc(Cl)cc3[C@@H]2Oc2ccc(-n3cncn3)cc2)C1', 'pIC50', '> 6.52'),
  ('NS(=O)(=O)c1ccc(O[C@H]2c3ccccc3C[C@@H]2N2CCCC2)c(Cl)c1Cl', 'pIC50', 6.40),
  ('CS(=O)(=O)c1ccc(O[C@H]2c3ccccc3C[C@@H]2N2CCCC2)cc1', 'pIC50', '> 6.52'),
  ('N[C@@H]1CCCN([C@H]2Cc3ccccc3[C@@H]2Oc2ccc(S(N)(=O)=O)c(Cl)c2Cl)C1', 'pIC50', '> 6.52'),
  ('CC(=O)Nc1cccc(O[C@H]2c3ccccc3C[C@@H]2N2CCCC2)c1', 'pIC50', 6.19),
  ('CN1C[C@@H]2CN([C@H]3Cc4c(Cl)cc(Cl)cc4[C@@H]3Oc3ccc(S(C)(=O)=O)cc3)C[C@@H]2C1', 'pIC50', '> 6.52'),
  ('O=c1[nH]ccn1-c1cccc(O[C@H]2c3ccccc3C[C@@H]2N2CCCC2)c1', 'pIC50', 5.42);

* * *

# target.under.test: CYP2D6 (Homo sapiens)
# procedure.text: Inhibition of CYP2D6 in pooled human hepatic microsomes assessed as remaining enzyme activity at 0.225 uM using […] substrate in presence of NADPH
# Type: ADME
# study.conditions: pooled human liver microsomes, probe testosterone, read-out: Activity
recorded.metric: activity at 0.225 µM (%)

INSERT INTO results (compound, reading_unit, value_measured) VALUES
  ('C=C[C@H]1C[N@@]2CC[C@H]1C[C@@H]2[C@@H](O)c1ccnc2ccc(OC)cc12 [QUINIDINE]', '%', 21);
